- System: Caco-2
- test: cell viability relative to DMSO; higher = less toxic
- condition-notes: 72 h; 1 nM
The following molecules are listed with their measured cell viability values.
Answer with a number only, understood to be in %.

Solved cases (5 shown):
INSERT INTO measurements (molecule, unit_of_measure, numeric_value) VALUES
  ('NC1=N[C@@]2(c3cc(NC(=O)c4ccc(F)cn4)ccc3F)COC[C@H]2CS1', '%', 94.8),
  ('Clc1ccc2c(NCCNc3ccnc4cc(Cl)ccc34)ccnc2c1', '%', 98.6),
  ('CCCC[C@@H](C=O)NC(=O)[C@H](CC(C)C)NC(=O)OCc1ccccc1', '%', 96.8),
  ('C=CCN1CCc2cc(O)c(O)cc2[C@H](c2ccccc2)C1', '%', 95.1),
  ('CCN1CCN(Cc2ccc(Nc3ncc(F)c(-c4cc(F)c5nc(C)n(C(C)C)c5c4)n3)nc2)CC1', '%', 109);

Input: Record O=C1O[C@H](CO)[C@@H](O)[C@H](O)[C@H]1O : what is its cell viability with Caco-2?
Output: 109

Input: Record COc1ccc(/C=C/C(=O)/C=C(O)/C=C/c2ccc(OC)c(OC)c2)cc1OC : what is its cell viability with Caco-2?
Output: 90.7

Input: Record CN(C)CC/C=C1\c2ccccc2CSc2ccccc21 [dosulepin] : what is its cell viability with Caco-2?
Output: 94.1

Input: Record O=C(CCCCC(=O)Nc1c(I)cc(I)c(C(=O)O)c1I)Nc1c(I)cc(I)c(C(=O)O)c1I [iodipamide] : what is its cell viability with Caco-2?
Output: 106

Input: Record Cn1cc(C2=C(c3cn(CCCSC(=N)N)c4ccccc34)C(=O)NC2=O)c2ccccc21 [bisindolylmaleimide-IX] : what is its cell viability with Caco-2?
Output: 100
